Please respond with reported aptazyme ON/OFF ratio for every item in the list.
B1: Pistol ribozyme (parent)
chain: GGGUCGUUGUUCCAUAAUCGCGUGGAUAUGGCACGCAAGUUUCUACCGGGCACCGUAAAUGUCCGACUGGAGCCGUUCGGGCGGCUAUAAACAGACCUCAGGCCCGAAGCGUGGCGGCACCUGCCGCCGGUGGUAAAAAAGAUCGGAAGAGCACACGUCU

variants of: B1; test: aptazyme ON/OFF ratio, guanine; higher = stronger switching; co-transcriptional cleavage with and without guanine
Answers are plain numbers.

See these solved cases before continuing.
VARIANT_KEY | aptazyme ON/OFF ratio
U8A U10C U11C C12A C13G | 1.14
U7C U8A G9C U11C C12G C13G | 1.12
U7C G9A U10C U11A C12A C13G | 1.22

Batch request: aptazyme ON/OFF ratio per item, same order as input.
1. U7G U8G G9C U10G U11C C12U C13U
2. U7C U8A G9A U10C C12G
3. U7C G9C U11C C12A C13A
4. G9A U10C U11A C12A C13G
5. U7G G9U U10C U11A C12A C13A
6. U7A U8A G9U U10A U11A C12A C13G

stdout:
1: 1.11; 2: 1.2; 3: 1.02; 4: 1.42; 5: 1.22; 6: 1.2

Batch request: aptazyme ON/OFF ratio per item, same order as input.
1. U7A U8G U10A U11G C12U C13U
2. U7G U8G G9U U10G U11A C12A C13U

stdout:
1.32
1.18
